System: MS2 coat protein
protocol-details: apparent KD of MS2 coat protein; designed switch direction (-1 OFF switch, 1 ON switch): -1; higher = weaker reporter binding
condition-parameters: input ligand: none

- biosequence: "UUUUGUCAGGUAUUUAUUAACAUGAGGAUCACCCAUGUGCAUCCAAAAUUACUUUUAGAUCAAGCUCGUCUUAUAUA [JR_STOV1_Sub089] (Eterna round: R97, puzzle: Sensor, turn-off variant 1)"
  apparent KD of MS2 coat protein / nM: 102
- biosequence: "GCGGUAUUCCCUGGAGUACCAUACAUGAGGAUCACCCAUGUAUAGGAUAUUGCAGGAGACAGCUGCGAGAAGGGUACAGGGUGU [Dierceza] (Eterna round: R96, puzzle: Exclusion NG 3)"
  apparent KD of MS2 coat protein / nM: 15.9
- biosequence: "GUGAGUAGUCAGGAUAUGCUGUACAAAAGUACAGCAGAAGGGACUACAUGAGGAUCACCCAUGUUUACUUCAUG [Omei Ex6 B5] (Eterna round: R97, puzzle: Exclusion 6)"
  apparent KD of MS2 coat protein / nM: 609
- biosequence: "AGGUUGUGAGGAUAUUAGUUAUAUGAUUGGAGGAGUAUGGCUGAGAAGGCACAUGAGGAUCACCCAUGUAGAUC [JR_Ex4_Sub048] (Eterna round: R97, puzzle: Exclusion 4)"
  apparent KD of MS2 coat protein / nM: 162
- biosequence: "CCGGAACAUGAGGAUCACCCAUGUCAGGAUAUCCCUAAAUCGUCGAUAGACGAUAAAAGGAGAAGGGACACCGG [Mat - Exclusion 1 - Eli Mod - D26] (Eterna round: R97, puzzle: Exclusion 1)"
  apparent KD of MS2 coat protein / nM: 16.3
- biosequence: "CAACUGUCAGGAUAUCGUGCAUACAACGAAAGUUCUAUGUGCGAGAAGGGACAUGAGGAUCACCCAUGUAAACG [Omei Ex4 A27] (Eterna round: R97, puzzle: Exclusion 4)"
  apparent KD of MS2 coat protein / nM: 60.9
- biosequence: "GAUUAACAUGAGGAUCACCCAUGUGAGGAUAUGAACUUGCCCACUUACCAGAUAAAGUUUAGAAGGCGCAUUCU [1986#35] (Eterna round: R97, puzzle: Exclusion 1)"
  apparent KD of MS2 coat protein / nM: 30.4
- biosequence: "ACAAGCUUUUUGUUUGUCUACAUGAGGAUCACCCAUGUGGGUGUCAGUCAUGCUGGCGUGUGGUGUCGUGGCAGCGC [Sensor V1 S1] (Eterna round: R97, puzzle: Sensor, turn-off variant 1)"
  apparent KD of MS2 coat protein / nM: 1610
- biosequence: "UAUUUACAUGAGGAUCACCCAUGUCAGGAUAUGUUUCUAUCGUCGAAAGACGAUAUUUGCAGAAGGGACAAUAU [LRO-Excl01-26 mod derived from EliFisker 4.24] (Eterna round: R97, puzzle: Exclusion 1)"
  apparent KD of MS2 coat protein / nM: 27.9
- biosequence: "CCAAAGUCAGGAUAUGUGCGUUAAAAGCCGUACGUAACGACACAGAAGGGACAUGAGGAUCACCCAUGUUGGUG [Eternabot (Original) Solution 13] (Eterna round: R97, puzzle: Exclusion 4)"
  apparent KD of MS2 coat protein / nM: 979

###

Tested on: MS2 coat protein
protocol-details: apparent KD of MS2 coat protein; designed switch direction (-1 OFF switch, 1 ON switch): -1; higher = weaker reporter binding
condition-parameters: Eterna round: R95; input ligand: none

- biosequence: "AGUACUAUGCGAGCUGACUUGCGUAGUGCAGCAGGUGUAACAUGAGGAUCACCCAUGUCCUCAUUUGCUCGUCUUAU [Mat - Sensor v3 - Turn-off var 2 - D8] (puzzle: Sensor v3, turn-off variant 2)"
  target-system: "MS2 coat protein"
  apparent KD of MS2 coat protein, nM: 248
- biosequence: "AAGAAGAAACAAGCUUUUUGCACGUCAGGUAGUGACGCAACAUGAGGAUCACCCAUGUAUAGGGUGGGAAAGGAUAG [JR_SV3TOV2_Sub048] (puzzle: Sensor v3, turn-off variant 2)"
  target-system: "MS2 coat protein"
  apparent KD of MS2 coat protein, nM: 303
- biosequence: "AAGAAACAUGAGGAUCACCCAUGUGAGGAUAUGAUAAAGAAAAGAAAAGAAAGAAGAUUCAGAAGGCACAAAGG [salish99-ex1_r3_034] (puzzle: Exclusion 1)"
  target-system: "MS2 coat protein"
  apparent KD of MS2 coat protein, nM: 48.7
- biosequence: "UAGGUGUGAGGAUAUGGUAAAGAUAAGAUGAUGAAAGAACUCCAGAAGGCACAUGAGGAUCACCCAUGUAGAUA [Mat - Exclusion 4 - Mod of JL - D31] (puzzle: Exclusion 4)"
  target-system: "MS2 coat protein"
  apparent KD of MS2 coat protein, nM: 20.5
- biosequence: "UAGUAGCAAGGAUAUACAGAGGAGAGGAUUGCAAGAGGUGGACAUGAGGAUCACCCAUGUAGAAGGUGCAGAGA [JR_Exclu2_Sub021] (puzzle: Exclusion 2)"
  target-system: "MS2 coat protein"
  apparent KD of MS2 coat protein, nM: 362
- biosequence: "GGUUGACAUGAGGAUCACCCAUGUGAGGAUAUGCGAGAGAAAAAAGUGAGGAAGUAAUGCAGAAGGCGCUGUCG [salish99-ex1_r3_017] (puzzle: Exclusion 1)"
  target-system: "MS2 coat protein"
  apparent KD of MS2 coat protein, nM: 210
- biosequence: "CCAGGCAGUGUGAGGAUAUGCUGGUGCAUACAUCAGCAGAAGGCACAUGAGGAUCACCCAUGUGAAGAGCUUGG [Mat - Exclusion 4 - JL Mod - D98] (puzzle: Brourd's mod of Exclusion 4)"
  target-system: "MS2 coat protein"
  apparent KD of MS2 coat protein, nM: 27.5
- biosequence: "GAGUGACAUGAGGAUCACCCAUGUGAGGAUAUCGGACGGACCAAAUUAACAACCACCGCGAGAAGGCACAUCGG [Exclusion 1 V21] (puzzle: Exclusion 1)"
  target-system: "MS2 coat protein"
  apparent KD of MS2 coat protein, nM: 107
- biosequence: "GGUCGAGAACAGCUCCGCGCCGCCCUCGACCGCUCAUUUACAUGAGGAUCACCCAUGUUUUUUGCUUGUCUUGUUUC [Ceerar] (puzzle: Sensor v3, turn-off variant 2)"
  target-system: "MS2 coat protein"
  apparent KD of MS2 coat protein, nM: 23.4
- biosequence: "UUUAAUUUUUUUUUUUUACAAGCUUUUUGCUCGUCUUAUACAUGAGGAUCACCCAUGUAAAUGGAAGGUAAAUUAUC [JMF 67] (puzzle: Sensor v3, turn-off variant 2)"
  target-system: "MS2 coat protein"
  apparent KD of MS2 coat protein, nM: 13.5
- biosequence: "GACCGGACGUGGUCAGGUAACAUGAGGAUCACCCAUGUAGGUCUAAGAACAAGCCUUUUGUACGCUCGUCUUAUAUU [JR_SV3TOV1_Sub060] (puzzle: Sensor v3, turn-off variant 1)"
  target-system: "MS2 coat protein"
  apparent KD of MS2 coat protein, nM: 55.8
- biosequence: "GUAAAAAAAAAGGAUAUCGAACUUAUUAUUUAACGAGAAGGAUGAACAUGAGGAUCACCCAUGUGGUAUCAUGG [test] (puzzle: Exclusion 6)"
  target-system: "MS2 coat protein"
  apparent KD of MS2 coat protein, nM: 213
- biosequence: "CUAGAUCUUCGGAUCUAGUACAUGAGGAUCACCCAUGUUACGAGUUGAUUUUCAUACAAGCUUUUUGCUCGUCUUAU [Sensor v3 - Turn-off variant 1 - 28] (puzzle: Sensor v3, turn-off variant 1)"
  target-system: "MS2 coat protein"
  apparent KD of MS2 coat protein, nM: 153
- biosequence: "UAAUACUCAGGAUAUAUGAUGUGAAACAUGAGGAUCACCCAUGUAAUAUUAUGGAUGUAAAUAGAAGGGAGAUUAU [Mat - Exclusion 5 - JL mod - D20] (puzzle: Exclusion 5)"
  target-system: "MS2 coat protein"
  apparent KD of MS2 coat protein, nM: 63
- biosequence: "CAUACUCAAGUGAGGAUAUAGUCUCGGAUACGGAACUAGAAGGCACAUGAGGAUCACCCAUGUAGAGAGUAAAG [EX-4 Malc #28] (puzzle: Brourd's mod of Exclusion 4)"
  target-system: "MS2 coat protein"
  apparent KD of MS2 coat protein, nM: 15.9
- biosequence: "UAAUGCAAGUAAAGAUCUUACAUGAGGAUCACCCAUGUGCUCGUCUUAUAAAGUACUAUCACGAAAGUGAUAGUACA [Mat - Sensor v3 - turn-off var 1 - Eli Mod - D89] (puzzle: Sensor v3, turn-off variant 1)"
  target-system: "MS2 coat protein"
  apparent KD of MS2 coat protein, nM: 18
- biosequence: "GAAAAGGUAGGAUAUACGAUAAAAAAGGGUAGAAAAAAAACACAUGAGGAUCACCCAUGUAGAAGGACCAAAAG [salish99_ex2_r3_086] (puzzle: Exclusion 2)"
  target-system: "MS2 coat protein"
  apparent KD of MS2 coat protein, nM: 30
- biosequence: "ACAUGGAAGCAGGAUAUGCUUGUAUAAUUGAAAGCAGAAGGGCUAACAUGAGGAUCACCCAUGUAAGAGGUCUA [JR_E6_Sub060] (puzzle: Exclusion 6)"
  target-system: "MS2 coat protein"
  apparent KD of MS2 coat protein, nM: 24.7
- biosequence: "AUAUAAACAUAGGAUAUCGAAUUUAUCAUUUAACGAGAAGGAUGAACAUGAGGAUCACCCAUGUGGUAUCAUGG [Mat - Exclusion 6 - JL Mod - D5] (puzzle: Exclusion 6)"
  target-system: "MS2 coat protein"
  apparent KD of MS2 coat protein, nM: 340
- biosequence: "GGUUGGCGAGGAUAUACAUGAGGAUCACCCAUGUGAGAAAAAAAAGUGAGGAAGAAAAGUAGAAGGCGCUGACG [salish99_ex3_r3_015] (puzzle: Exclusion 3)"
  target-system: "MS2 coat protein"
  apparent KD of MS2 coat protein, nM: 35.6

All values here come from the supplement of paper PMC9170038.
